# target under test: MMP-2 (Homo sapiens, UniProt P08253)
# Construct: purchased Sino Biological 10082-HNAH
# Sequence (P08253 110-660): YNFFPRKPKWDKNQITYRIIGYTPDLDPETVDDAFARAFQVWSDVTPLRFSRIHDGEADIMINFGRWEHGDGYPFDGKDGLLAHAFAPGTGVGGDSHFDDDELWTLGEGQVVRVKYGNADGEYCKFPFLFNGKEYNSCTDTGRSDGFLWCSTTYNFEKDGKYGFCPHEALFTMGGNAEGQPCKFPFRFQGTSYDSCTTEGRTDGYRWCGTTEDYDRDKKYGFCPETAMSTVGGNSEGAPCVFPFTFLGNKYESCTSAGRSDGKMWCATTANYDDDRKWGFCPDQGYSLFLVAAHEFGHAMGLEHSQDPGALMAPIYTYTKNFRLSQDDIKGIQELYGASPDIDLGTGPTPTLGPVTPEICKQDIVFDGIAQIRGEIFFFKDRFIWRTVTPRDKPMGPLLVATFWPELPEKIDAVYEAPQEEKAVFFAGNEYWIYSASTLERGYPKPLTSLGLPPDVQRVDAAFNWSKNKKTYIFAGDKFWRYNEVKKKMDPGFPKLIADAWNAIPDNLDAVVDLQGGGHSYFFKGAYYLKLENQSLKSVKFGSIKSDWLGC
# assay name: MMP-2 inhibition assay (fluorogenic peptide substrate)
# Type: biochemical
# experimental conditions: Figure 5d; fragment combination joined by linker; n.d: not detected; read-out: MMP2 IC50
# reported pIC50; entries follow
Scale note: pIC50 = -log10(concentration in M).

Worked set:
structure string: Cc1cc(=O)[nH]c(-n2nc(C)c(CCC(=O)NCCNC(=O)c3cncc(O)c3)c2C)n1
outcome measure: pIC50
measured result: 3.96
--
structure string: Cc1cc(=O)[nH]c(-n2nc(C)c(CCC(=O)NCCCCCCCCNC(=O)CCC(=O)NCc3c[nH]nn3)c2C)n1
outcome measure: pIC50
measured result: 3.77
--
structure string: Cc1cc(=O)[nH]c(-n2nc(C)c(CCC(=O)NCCSCC(=O)NCc3c[nH]nn3)c2C)n1
outcome measure: pIC50
measured result: 3.83
--
structure string: O=C(/C=C/CCCCNC(=O)c1cncc(O)c1)CC(=O)NCC12CC3CC(CC(C3)C1)C2
outcome measure: pIC50
measured result: 3.31
--
structure string: O=C(CCC(=O)NCc1c[nH]nn1)NCCCCCCCCNC(=O)Cn1cnc2c(oc3ccccc32)c1=O
outcome measure: pIC50
measured result: 3.72
--
structure string: O=C(CSCCNC(=O)c1cncc(O)c1)NCC12CC3CC(CC(C3)C1)C2
outcome measure: pIC50
measured result: 3.73
--
structure string: O=C(CNC(=O)NC12CC3CC(CC(C3)C1)C2)NCCSCC(=O)NCc1c[nH]nn1
outcome measure: pIC50
measured result: 3.06

// query What value of pIC50 has been recorded for this entry: Cc1cc(=O)[nH]c(-n2nc(C)c(CCC(=O)NCc3c[nH]nn3)c2C)n1
// result 3.69

---

# reported remaining activity (%); entries follow
# target under test: MMP-2 (Homo sapiens, UniProt P08253)
# Construct: purchased Sino Biological 10082-HNAH
# assay name: MMP-2 inhibition assay (fluorogenic peptide substrate)
# Assay type: biochemical
# experimental conditions: MMP-2; concentration 0.0156 µM
# output: bare number, no unit

Worked set:
molecule: O=C(C=CCCCCNC(=O)c1cncc(O)c1)CC(=O)NCC12CC3CC(CC(C3)C1)C2 [66+828 Linker 12]
remaining activity (%): 99.10
//
molecule: O=C(CNC(=O)NC12CC3CC(CC(C3)C1)C2)NCc1c[nH]nn1 [66+787 Linker 1]
remaining activity (%): 93.33
//
molecule: O=C(CNC(=O)NC12CC3CC(CC(C3)C1)C2)NCCSCC(=O)NCc1c[nH]nn1 [66+787 Linker 24]
remaining activity (%): 107.17
//
molecule: Cc1cc(=O)[nH]c(-n2nc(C)c(CCC(=O)NCCCCCCCCNC(=O)c3cncc(O)c3)c2C)n1 [693+828 Linker 4]
remaining activity (%): 102.68
//
molecule: Cc1cc(=O)[nH]c(-n2nc(C)c(CCC(=O)NCCOCCOCCNC(=O)CCC(=O)NCc3c[nH]nn3)c2C)n1 [693+787 Linker 10]
remaining activity (%): 92.29
//
molecule: O=C(CCCCCCC(=O)NCC12CC3CC(CC(C3)C1)C2)NCc1c[nH]nn1 [66+787 Linker 4]
remaining activity (%): 93.57
//
molecule: O=C(CNC(=O)NC12CC3CC(CC(C3)C1)C2)NCCCCCCCCNC(=O)c1cncc(O)c1 [66+828 Linker 4]
remaining activity (%): 106.93

Moving on to the next molecule.
// query What value of remaining activity (%) has been recorded for this entry: Cc1cc(=O)[nH]c(-n2nc(C)c(CCC(=O)NCCSCC(=O)NCc3c[nH]nn3)c2C)n1 [693+787 Linker 24]
// result 88.74

---

# target under test: MMP-2 (Homo sapiens, UniProt P08253)
# Construct: purchased Sino Biological 10082-HNAH
# assay name: MMP-2 inhibition assay (fluorogenic peptide substrate)
# Format: biochemical
# experimental conditions: MMP-2; concentration 31.25 µM
# Experimental: The inhibition by the small molecule compounds against MMP-2/MMP-9 was measured using an assay probing the enzyme proteolytic activity on the substrate DNP-Pro-Leu-Gly-Met-Trp-Ser-Arg (Enzo Life Sciences, USA). All assays were performed in the assay buffer containing 50 mM Tris, 100 mM NaCl. […] The rate of hydrolysis was monitored by quantifying the emission at 360 nm (ex: 280 nm). The emission was measured with intervals of the 30 s for 30 min with Synergy H1 Plate Reader (Agilent, USA). […]
Binarize remaining activity (%) at 80; below is t, at or above is f.

// query Hello, is remaining activity (%) of the following compound strictly smaller than 80? Cn1c(O)nc2cc(C(=O)NCC34CC5CC(CC(C5)C3)C4)cnc21
// result f

// query Hello, is remaining activity (%) of the following compound strictly smaller than 80? Cn1c(O)nc2cc(C(=O)NCCSCC(=O)NCC34CC5CC(CC(C5)C3)C4)cnc21
// result f

// query Hello, is remaining activity (%) of the following compound strictly smaller than 80? Cn1c(O)nc2cc(C(=O)NCCCC/C=C/C(=O)CC(=O)NCC34CC5CC(CC(C5)C3)C4)cnc21
// result f

// query Hello, is remaining activity (%) of the following compound strictly smaller than 80? Cc1cc(=O)[nH]c(-n2nc(C)c(CCC(=O)NCCSCC(=O)NCCNC(=O)c3cnc4c(c3)nc(O)n4C)c2C)n1
// result t

// query Hello, is remaining activity (%) of the following compound strictly smaller than 80? Cc1cc(=O)[nH]c(-n2nc(C)c(CCC(=O)NCCCCCCCCNC(=O)c3cnc4c(c3)nc(O)n4C)c2C)n1
// result f

// query Hello, is remaining activity (%) of the following compound strictly smaller than 80? Cc1cc(=O)[nH]c(-n2nc(C)c(CCC(=O)NCCOCCOCCNC(=O)c3cnc4c(c3)nc(O)n4C)c2C)n1
// result f

---

# reported remaining enzyme activity (% of control); entries follow
# target under test: MMP-9 (Homo sapiens, UniProt P14780)
# Construct: purchased Sino Biological 10327-HNAH
# Sequence (P14780 107-707 limits assumed): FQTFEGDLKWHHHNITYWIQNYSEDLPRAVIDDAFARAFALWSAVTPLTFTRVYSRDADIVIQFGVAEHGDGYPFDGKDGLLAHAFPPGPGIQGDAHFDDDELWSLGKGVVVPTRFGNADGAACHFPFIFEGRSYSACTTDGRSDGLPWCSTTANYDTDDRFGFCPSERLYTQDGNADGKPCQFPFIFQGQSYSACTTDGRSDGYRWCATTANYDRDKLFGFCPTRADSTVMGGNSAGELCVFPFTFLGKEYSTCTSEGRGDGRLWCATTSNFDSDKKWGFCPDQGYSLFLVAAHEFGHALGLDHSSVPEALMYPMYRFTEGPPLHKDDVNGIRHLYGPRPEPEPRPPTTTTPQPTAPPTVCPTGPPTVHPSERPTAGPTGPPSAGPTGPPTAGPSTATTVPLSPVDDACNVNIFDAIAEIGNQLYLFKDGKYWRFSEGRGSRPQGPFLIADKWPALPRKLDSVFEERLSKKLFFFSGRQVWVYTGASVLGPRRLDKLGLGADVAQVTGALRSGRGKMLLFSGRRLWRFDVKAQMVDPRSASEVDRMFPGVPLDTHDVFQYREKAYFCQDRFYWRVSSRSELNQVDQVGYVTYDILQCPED
# assay name: MMP-9 inhibition assay (fluorogenic peptide substrate)
# Assay type: biochemical
# Design: scale not given here
# experimental conditions: MMP-9; concentration 1.95 µM
# Description: The inhibition by the small molecule compounds against MMP-2/MMP-9 was measured using an assay probing the enzyme proteolytic activity on the substrate DNP-Pro-Leu-Gly-Met-Trp-Ser-Arg (Enzo Life Sciences, USA). All assays were performed in the assay buffer containing 50 mM Tris, 100 mM NaCl. […] The rate of hydrolysis was monitored by quantifying the emission at 360 nm (ex: 280 nm). The emission was measured with intervals of the 30 s for 30 min with Synergy H1 Plate Reader (Agilent, USA). […]
# output: bare number, no unit

compound: Cn1c(O)nc2cc(C(=O)NCCOCCOCCNC(=O)CNC(=O)NC34CC5CC(CC(C5)C3)C4)cnc21 [66+826 Linker 10]
target under test: MMP-9 (Homo sapiens, UniProt P14780)
outcome measure: remaining enzyme activity (% of control)
measured result: 97.71

// query What value of remaining enzyme activity (% of control) has been recorded for this entry: Cn1c(O)nc2cc(C(=O)NCCSCC(=O)NCC34CC5CC(CC(C5)C3)C4)cnc21 [66+826 Linker 24]
// result 102.00

---

# reported IC50; entries follow
# target under test: MMP-9 (Homo sapiens, UniProt P14780)
# Construct: purchased Sino Biological 10327-HNAH
# assay name: MMP-9 inhibition assay (fluorogenic peptide substrate)
# Type: biochemical
# experimental conditions: Figure 5d; fragment combination joined by linker; n.d: not detected; read-out: MMP9 IC50
# Protocol: The inhibition by the small molecule compounds against MMP-2/MMP-9 was measured using an assay probing the enzyme proteolytic activity on the substrate DNP-Pro-Leu-Gly-Met-Trp-Ser-Arg (Enzo Life Sciences, USA). All assays were performed in the assay buffer containing 50 mM Tris, 100 mM NaCl. […] The rate of hydrolysis was monitored by quantifying the emission at 360 nm (ex: 280 nm). The emission was measured with intervals of the 30 s for 30 min with Synergy H1 Plate Reader (Agilent, USA). […]
Provide only the numeric value, understood in µM.

Worked set:
compound: O=C(Cn1cnc2c(oc3ccccc32)c1=O)NCCNC(=O)c1cncc(O)c1 [182_828 1]
target under test: MMP-9 (Homo sapiens, UniProt P14780)
unit text: µM
IC50: 92.1

compound: Cc1cc(=O)[nH]c(-n2nc(C)c(CCC(=O)NCCNC(=O)CC(=O)/C=C/CCCCNC(=O)CCC(=O)NCc3c[nH]nn3)c2C)n1 [693_787 12]
target under test: MMP-9 (Homo sapiens, UniProt P14780)
unit text: µM
IC50: 45.6

compound: O=C(Cn1cnc2c(oc3ccccc32)c1=O)NCCCCCCCCNC(=O)c1cncc(O)c1 [182_828 4]
target under test: MMP-9 (Homo sapiens, UniProt P14780)
unit text: µM
IC50: 233

compound: O=C(CNC(=O)NC12CC3CC(CC(C3)C1)C2)NCCOCCOCCNC(=O)c1cncc(O)c1 [66_828 10]
target under test: MMP-9 (Homo sapiens, UniProt P14780)
unit text: µM
IC50: 521

Moving on to the next compound.
// query What value of IC50 has been recorded for this entry: O=C(CCC(=O)NCc1c[nH]nn1)NCCCCCCCCNC(=O)Cn1cnc2c(oc3ccccc32)c1=O [182_787 4]
// result 134
